target: Cholinesterase (Homo sapiens, UniProt P06276); assay: Inhibition of recombinant human BChE by DTNB reagent based Ellman's method
Sequence (P06276 whole entry): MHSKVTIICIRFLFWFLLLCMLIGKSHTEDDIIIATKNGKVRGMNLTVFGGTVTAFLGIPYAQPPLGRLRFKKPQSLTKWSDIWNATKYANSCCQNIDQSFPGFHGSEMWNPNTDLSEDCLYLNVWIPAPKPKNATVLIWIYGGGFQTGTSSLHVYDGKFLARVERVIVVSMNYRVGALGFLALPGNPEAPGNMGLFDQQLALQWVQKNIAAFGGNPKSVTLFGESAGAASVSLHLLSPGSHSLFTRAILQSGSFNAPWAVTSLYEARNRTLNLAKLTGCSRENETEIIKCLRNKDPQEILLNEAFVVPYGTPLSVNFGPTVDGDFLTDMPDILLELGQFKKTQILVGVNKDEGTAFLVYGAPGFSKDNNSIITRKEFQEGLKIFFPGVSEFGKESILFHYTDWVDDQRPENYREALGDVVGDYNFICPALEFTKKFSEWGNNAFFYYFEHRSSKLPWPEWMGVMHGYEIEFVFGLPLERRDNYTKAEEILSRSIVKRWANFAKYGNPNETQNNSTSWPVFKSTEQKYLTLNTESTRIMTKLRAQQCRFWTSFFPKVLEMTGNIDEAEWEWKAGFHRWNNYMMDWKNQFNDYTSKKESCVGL
pKi: −log10 of the molar value.
Recorded pKi values for a group of compounds are listed next.
MEASURED PROPERTY: pKi

1. Fc1cc(C(F)(F)F)ccc1CN(CCCCCCCCNc1ccnc2cc(Cl)ccc12)c1ccc(C(F)(F)F)cc1F
5.82
2. Fc1ccc(Br)c(CNCCCCCCCCNc2ccnc3cc(Cl)ccc23)c1
6.55
3. Clc1ccc(CNCCCCCCCCNc2ccnc3cc(Cl)ccc23)c(Cl)c1
6.74
4. Fc1ccc(Br)cc1CNCCCCCCCCNc1ccnc2cc(Cl)ccc12
6.66
5. Fc1cccc(CNCCCCCCCCNc2ccnc3cc(Cl)ccc23)c1
8.08
6. Fc1cc(C(F)(F)F)ccc1CNCCCCCCCCNc1ccnc2cc(Cl)ccc12
5.96
7. Fc1ccc(F)c(CNCCCCCCCCNc2ccnc3cc(Cl)ccc23)c1
7.39
8. Cc1cc(F)c(CNCCCCCCCCNc2ccnc3cc(Cl)ccc23)cc1F
6.21
